The reported measurements were obtained from patent US20100292231A1.

Biological target: FGFR1 (Homo sapiens, UniProt P11362)
Sequence (P11362 22-822): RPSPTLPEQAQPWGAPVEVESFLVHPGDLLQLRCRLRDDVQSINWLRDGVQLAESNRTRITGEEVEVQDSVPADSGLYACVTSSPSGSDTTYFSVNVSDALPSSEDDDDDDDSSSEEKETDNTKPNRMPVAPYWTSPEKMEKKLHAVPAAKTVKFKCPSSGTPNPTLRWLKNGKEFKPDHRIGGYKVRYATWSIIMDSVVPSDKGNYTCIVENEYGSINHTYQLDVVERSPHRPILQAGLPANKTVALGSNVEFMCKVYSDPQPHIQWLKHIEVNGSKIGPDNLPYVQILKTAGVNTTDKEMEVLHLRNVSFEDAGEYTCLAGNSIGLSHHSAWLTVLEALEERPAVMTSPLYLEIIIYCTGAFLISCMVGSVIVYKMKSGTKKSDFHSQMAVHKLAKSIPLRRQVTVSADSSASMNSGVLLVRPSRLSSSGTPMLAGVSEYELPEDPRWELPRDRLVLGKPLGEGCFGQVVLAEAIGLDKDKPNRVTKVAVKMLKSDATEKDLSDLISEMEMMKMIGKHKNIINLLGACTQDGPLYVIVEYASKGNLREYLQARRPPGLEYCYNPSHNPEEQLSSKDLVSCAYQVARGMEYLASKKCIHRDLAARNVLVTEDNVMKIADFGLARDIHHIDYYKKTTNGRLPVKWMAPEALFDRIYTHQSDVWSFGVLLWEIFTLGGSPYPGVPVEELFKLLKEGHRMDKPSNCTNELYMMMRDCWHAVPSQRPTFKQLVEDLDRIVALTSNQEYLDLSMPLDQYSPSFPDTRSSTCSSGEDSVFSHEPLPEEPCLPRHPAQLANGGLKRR
Test: SelectScreen kinase specificity survey
Settings: estimated, abridged dose response curve, read-out: Kinase inhibitory activity EC50
Outcome Measure: EC50 (µM)
The response must be a number in µM with no trailing unit.

[
  {
    "Compound": "CN(C)CCCNc1ccc2ncn3c4ccc5[nH]ncc5c4c(=O)c1c23",
    "System Under Test": "FGFR1 (Homo sapiens, UniProt P11362)",
    "EC50, µM": 3.57
  }
]

We next turn to a different compound, shown below.
# compound CCN(CC)CCNc1ccc2ncn3c4ccc(O)cc4c(=O)c1c23 [Symadex, reference compound] ; its EC50 = 2.39

----------
Entries and their EC50
Target: PAK6 (Homo sapiens)
Construct: purchased Invitrogen (SelectScreen platform)
Sequence (Q9NQU5 whole entry): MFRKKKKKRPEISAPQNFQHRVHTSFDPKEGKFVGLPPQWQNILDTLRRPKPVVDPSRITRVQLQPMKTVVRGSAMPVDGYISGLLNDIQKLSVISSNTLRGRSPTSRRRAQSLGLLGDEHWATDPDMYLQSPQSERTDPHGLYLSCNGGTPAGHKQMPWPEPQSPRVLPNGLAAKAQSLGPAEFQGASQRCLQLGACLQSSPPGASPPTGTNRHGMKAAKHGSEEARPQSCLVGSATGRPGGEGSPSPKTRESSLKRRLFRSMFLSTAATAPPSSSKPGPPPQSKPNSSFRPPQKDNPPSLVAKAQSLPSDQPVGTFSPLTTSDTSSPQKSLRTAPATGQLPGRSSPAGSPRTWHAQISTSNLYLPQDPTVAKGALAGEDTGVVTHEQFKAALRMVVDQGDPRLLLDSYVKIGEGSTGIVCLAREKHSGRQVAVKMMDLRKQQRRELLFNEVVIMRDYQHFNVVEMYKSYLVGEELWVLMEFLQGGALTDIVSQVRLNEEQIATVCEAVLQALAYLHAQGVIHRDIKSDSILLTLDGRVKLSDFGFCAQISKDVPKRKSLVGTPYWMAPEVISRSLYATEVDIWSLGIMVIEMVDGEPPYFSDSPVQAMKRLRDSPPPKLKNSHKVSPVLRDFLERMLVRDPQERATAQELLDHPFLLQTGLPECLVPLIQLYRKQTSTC
Experiment: SelectScreen kinase specificity survey
Format: biochemical
Details: estimated, abridged dose response curve, read-out: Kinase inhibitory activity EC50

[
  {
    "Molecule": "CN(C)CCCNc1ccc2ncn3c4ccc5[nH]ncc5c4c(=O)c1c23",
    "EC50": "> 5 µM"
  }
]

We next turn to a different molecule, shown below.
# molecule CCN(CC)CCNc1ccc2ncn3c4ccc(O)cc4c(=O)c1c23 [Symadex, reference compound] ; its EC50 = > 5 µM

----------
Molecular target: MAP4K5 (KHS1) (Homo sapiens)
Sequence (Q9Y4K4 whole entry): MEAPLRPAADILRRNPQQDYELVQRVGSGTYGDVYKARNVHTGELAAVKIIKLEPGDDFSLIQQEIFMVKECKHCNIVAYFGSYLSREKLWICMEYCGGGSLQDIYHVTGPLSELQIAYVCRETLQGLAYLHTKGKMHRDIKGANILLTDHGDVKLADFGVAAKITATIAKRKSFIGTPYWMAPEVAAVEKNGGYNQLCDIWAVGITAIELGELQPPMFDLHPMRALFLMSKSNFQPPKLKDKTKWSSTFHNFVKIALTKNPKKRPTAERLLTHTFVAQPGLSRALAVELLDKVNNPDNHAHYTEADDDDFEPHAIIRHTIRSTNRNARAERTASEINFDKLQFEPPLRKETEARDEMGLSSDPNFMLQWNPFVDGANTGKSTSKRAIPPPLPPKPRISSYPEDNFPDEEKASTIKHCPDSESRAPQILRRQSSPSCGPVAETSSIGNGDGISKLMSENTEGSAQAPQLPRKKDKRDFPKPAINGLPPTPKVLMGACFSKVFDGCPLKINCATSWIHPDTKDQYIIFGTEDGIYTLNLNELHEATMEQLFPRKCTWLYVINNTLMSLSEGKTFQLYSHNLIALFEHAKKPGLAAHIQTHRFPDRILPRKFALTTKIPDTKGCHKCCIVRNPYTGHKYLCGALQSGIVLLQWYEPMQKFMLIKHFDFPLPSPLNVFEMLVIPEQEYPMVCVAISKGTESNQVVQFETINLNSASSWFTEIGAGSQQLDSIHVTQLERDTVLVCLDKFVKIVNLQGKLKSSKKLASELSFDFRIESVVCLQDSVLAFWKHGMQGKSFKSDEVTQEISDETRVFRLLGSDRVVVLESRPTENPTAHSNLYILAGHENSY
Assay: SelectScreen kinase specificity survey
Conditions: estimated, abridged dose response curve, read-out: Kinase inhibitory activity EC50
Outcome Measure: pEC50
Hey, just a heads up that pEC50 is the negative log base 10 of the concentration in molar.

# compound CCN(CC)CCNc1ccc2ncn3c4ccc(O)cc4c(=O)c1c23 [Symadex, reference compound] ; its pEC50 = 5.61

----------
Target: SRC (Homo sapiens)
Sequence (P12931 whole entry): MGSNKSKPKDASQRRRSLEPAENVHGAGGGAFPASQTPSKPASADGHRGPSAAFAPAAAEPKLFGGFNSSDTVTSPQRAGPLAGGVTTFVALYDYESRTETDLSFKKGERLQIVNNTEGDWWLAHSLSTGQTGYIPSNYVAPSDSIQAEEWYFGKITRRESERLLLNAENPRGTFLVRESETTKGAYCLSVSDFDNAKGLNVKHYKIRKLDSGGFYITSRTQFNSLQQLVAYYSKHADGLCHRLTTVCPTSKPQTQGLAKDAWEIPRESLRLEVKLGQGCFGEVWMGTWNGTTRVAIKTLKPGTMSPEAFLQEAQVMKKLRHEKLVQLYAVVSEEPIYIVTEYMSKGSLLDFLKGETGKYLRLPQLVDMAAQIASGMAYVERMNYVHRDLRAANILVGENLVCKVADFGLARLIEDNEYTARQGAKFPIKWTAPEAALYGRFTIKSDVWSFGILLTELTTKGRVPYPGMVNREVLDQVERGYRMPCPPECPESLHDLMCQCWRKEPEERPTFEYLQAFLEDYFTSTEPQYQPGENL
Experiment: SelectScreen kinase specificity survey
Conditions: estimated, abridged dose response curve, read-out: Kinase inhibitory activity EC50
Outcome Measure: EC50 (nM)
The response must be a number in nM with no trailing unit.

[
  {
    "Molecule": "CCN(CC)CCNc1ccc2ncn3c4ccc(O)cc4c(=O)c1c23 [Symadex, reference compound]",
    "EC50, nM": 4410
  }
]

We next turn to a different molecule, shown below.
# molecule CN(C)CCCNc1ccc2ncn3c4ccc5[nH]ncc5c4c(=O)c1c23 ; its EC50 = 437

----------
Molecular target: MAP2K6 (MKK6) (Homo sapiens, UniProt P52564)
Construct: purchased Invitrogen (SelectScreen platform)
Sequence (P52564 1-334): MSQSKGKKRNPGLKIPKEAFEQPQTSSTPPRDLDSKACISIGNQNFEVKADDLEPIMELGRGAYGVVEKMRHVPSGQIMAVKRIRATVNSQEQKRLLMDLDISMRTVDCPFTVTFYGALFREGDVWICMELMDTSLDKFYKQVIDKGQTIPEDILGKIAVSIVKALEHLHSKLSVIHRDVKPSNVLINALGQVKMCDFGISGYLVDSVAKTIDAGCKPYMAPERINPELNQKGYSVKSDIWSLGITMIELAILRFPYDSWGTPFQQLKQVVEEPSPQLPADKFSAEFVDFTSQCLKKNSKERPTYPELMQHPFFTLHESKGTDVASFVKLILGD
Experiment: SelectScreen kinase specificity survey
Assay type: biochemical
Conditions: estimated, abridged dose response curve, read-out: Kinase inhibitory activity EC50
pEC50: −log10 of the molar value.
Entries and their pEC50

[
  {
    "Compound": "CN(C)CCCNc1ccc2ncn3c4ccc5[nH]ncc5c4c(=O)c1c23",
    "pEC50": "< 5.30"
  }
]

We next turn to a different compound, shown below.
Kindly note: MAP2K6 (MKK6) (Homo sapiens, UniProt P52564), CCN(CC)CCNc1ccc2ncn3c4ccc(O)cc4c(=O)c1c23 [Symadex, reference compound] , pEC50 value reported: < 5.30
